system: Bacteroides stercoris; assay: growth AUC relative to DMSO control (median of replicates) (fraction); higher = more growth (less inhibition), active = hit call of the paper; conditions: 20 µM; 24 h;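 active = AUC reduced over 20% with Padj below 0.05 in at least 2 of 3 replicates; inactive = otherwise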
// one of label 1 = active, label 0 = inactive, no free text

// known answers, use as guide
INSERT INTO measurements (molecule, tested_system, class_label) VALUES
  ('ClC1=C(Cl)C2(Cl)[C@H]3[C@H]4O[C@H]4[C@H](Cl)[C@H]3C1(Cl)C2(Cl)Cl (single isomer, unassigned; isomer a)', 'Bacteroides stercoris', 'label 0'),
  ('Nc1cc(Cl)cc(C(=O)O)c1Cl', 'Bacteroides stercoris', 'label 0'),
  ('CCCCN(CC)c1c([N+](=O)[O-])cc(C(F)(F)F)cc1[N+](=O)[O-]', 'Bacteroides stercoris', 'label 0'),
  ('CCN(C(=O)n1nnn(-c2ccccc2Cl)c1=O)C1CCCCC1', 'Bacteroides stercoris', 'label 1'),
  ('CC1COC(Cn2cncn2)(c2ccc(Oc3ccc(Cl)cc3)cc2Cl)O1 (stereo unspecified)', 'Bacteroides stercoris', 'label 0'),
  ('C1=Cc2cccc3cccc1c23', 'Bacteroides stercoris', 'label 0'),
  ('CCOP(=S)(OCC)SCn1nnc2ccccc2c1=O', 'Bacteroides stercoris', 'label 0'),
  ('C[n+]1ccc(-c2cc[n+](C)cc2)cc1.O.[Cl-].[Cl-]', 'Bacteroides stercoris', 'label 0');

Problem: Look up the recorded call for `CCc1nn(C)c(C(=O)NCc2ccc(C(C)(C)C)cc2)c1Cl` in this test.
Result: label 1

Problem: Look up the recorded call for CC(C)(C)C(O)C(Oc1ccc(Cl)cc1)n1cncn1 (stereo unspecified) in this test.
Result: label 0

Problem: Look up the recorded call for CP(=O)(O)CCC(N)C(=O)[O-].[NH4+] (stereo unspecified) in this test.
Result: label 0

Problem: Look up the recorded call for `Clc1ccccc1-c1nnc(-c2ccccc2Cl)nn1` in this test.
Result: label 0

Problem: Look up the recorded call for `N#Cc1c[nH]cc1-c1cccc2c1OC(F)(F)O2` in this test.
Result: label 0

Problem: Look up the recorded call for CC(C)=CC1C(C(=O)OCc2cccc(Oc3ccccc3)c2)C1(C)C (mixture of isomers) in this test.
Result: label 0

Problem: Look up the recorded call for `Nc1ncn[nH]1` in this test.
Result: label 0

Problem: Look up the recorded call for `O=C(Nc1ccc(F)cc1F)c1cccnc1Oc1cccc(C(F)(F)F)c1` in this test.
Result: label 0
